Biological target: T1, human CD22, endogenous on Raji cells (human, UniProt P20273 20-847)
T1 construct: whole, on cells; Endogenous protein of the Raji cell line
T1 sequence (looked up): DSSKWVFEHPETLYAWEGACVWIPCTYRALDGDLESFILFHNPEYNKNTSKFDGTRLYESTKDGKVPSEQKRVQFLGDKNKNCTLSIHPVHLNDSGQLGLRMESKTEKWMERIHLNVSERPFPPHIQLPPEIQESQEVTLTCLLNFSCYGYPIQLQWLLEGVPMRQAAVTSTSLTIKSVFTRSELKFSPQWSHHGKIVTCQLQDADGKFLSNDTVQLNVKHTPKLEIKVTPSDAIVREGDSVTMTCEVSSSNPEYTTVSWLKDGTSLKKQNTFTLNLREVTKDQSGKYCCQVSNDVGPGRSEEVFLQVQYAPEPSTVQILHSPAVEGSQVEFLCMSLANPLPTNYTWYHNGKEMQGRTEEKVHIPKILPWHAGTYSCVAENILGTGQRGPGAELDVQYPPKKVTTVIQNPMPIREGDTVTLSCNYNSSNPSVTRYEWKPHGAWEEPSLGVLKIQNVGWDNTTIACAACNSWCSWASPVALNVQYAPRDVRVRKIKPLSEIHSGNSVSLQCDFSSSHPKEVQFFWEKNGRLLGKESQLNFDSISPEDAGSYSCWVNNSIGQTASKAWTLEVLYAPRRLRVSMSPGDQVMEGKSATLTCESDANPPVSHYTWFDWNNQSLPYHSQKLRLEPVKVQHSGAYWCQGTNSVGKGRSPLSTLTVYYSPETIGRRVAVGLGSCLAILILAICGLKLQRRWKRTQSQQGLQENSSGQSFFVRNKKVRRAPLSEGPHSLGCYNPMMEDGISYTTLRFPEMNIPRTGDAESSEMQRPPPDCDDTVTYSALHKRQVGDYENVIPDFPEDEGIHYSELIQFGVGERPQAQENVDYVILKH
Assay: FACS, Raji cells
metric: EC50 (nM)
The response must be a number in nM with no trailing unit.

What does the data say about its EC50? Entry: F1.172.13 human-murine chimeric antibody (antibody, human IgG1, kappa, V domains shown, Chimeric, human IgG1 / kappa) VH: QVTLKESGPGILQSSQTLSLTCSFSGFSLSTSGMGVSWIRQPSGKGLEWLAHIYWDDDKRYNPSLKSRLTISKDTSRNQVFLKITSVDTADTATYYCARAPPPNWDEYYFDYWGQGTTLTVSS VL: DIQMTQSPASLSASVGETVTITCRASGNIHNSLAWYQQKQGKSPQLLVHNAKTLADGVPSRFSGSGSGTQYSLKINSLQPEDFGSYYCQHFWSTPPFGGGTKLEIKR 0.17

What does the data say about its EC50? Entry: F1.161.7 human-murine chimeric antibody (antibody, human IgG1, kappa, V domains shown, Chimeric, human IgG1 / kappa) VH: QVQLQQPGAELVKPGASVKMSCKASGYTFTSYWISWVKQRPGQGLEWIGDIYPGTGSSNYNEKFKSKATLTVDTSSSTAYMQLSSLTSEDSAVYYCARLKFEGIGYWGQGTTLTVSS VL: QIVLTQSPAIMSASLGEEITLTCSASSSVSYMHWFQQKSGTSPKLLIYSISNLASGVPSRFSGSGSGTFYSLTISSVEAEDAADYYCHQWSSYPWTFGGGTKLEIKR 0.22

What does the data say about its EC50? Entry: F1.216.2 human-murine chimeric antibody (antibody, human IgG1, kappa, V domains shown, Chimeric, human IgG1 / kappa) VH: QVQLQQSGPEVVRPGASVKISCKASGYAFSSSWMNWMKQRPGKALEWIGRIYPGDGDTNYSGEFKVKATLTADKSSSTAYMQLSSLTSEDSAVYFCAREGSYYSNPWYFDYWGQGTTLTVSS VL: DVLVTQTPLSLPVSLGDQASISCRSSQSIVQSNGDTYLEWYLQKPGQSPKLLIYKVSNRFSGVPDRFSGSGSGTDFTLKISRVEAEDLGVYYCFQGSHVPFTFGSGTKLEIKR 0.16

Source of measurements: patent US20240084003A1
